Target: T1, EsCas13d, nuclease-dead (Eubacterium siraeum, UniProt B0MS50, R295A;H300A;R849A;H854A)
T1 sequence: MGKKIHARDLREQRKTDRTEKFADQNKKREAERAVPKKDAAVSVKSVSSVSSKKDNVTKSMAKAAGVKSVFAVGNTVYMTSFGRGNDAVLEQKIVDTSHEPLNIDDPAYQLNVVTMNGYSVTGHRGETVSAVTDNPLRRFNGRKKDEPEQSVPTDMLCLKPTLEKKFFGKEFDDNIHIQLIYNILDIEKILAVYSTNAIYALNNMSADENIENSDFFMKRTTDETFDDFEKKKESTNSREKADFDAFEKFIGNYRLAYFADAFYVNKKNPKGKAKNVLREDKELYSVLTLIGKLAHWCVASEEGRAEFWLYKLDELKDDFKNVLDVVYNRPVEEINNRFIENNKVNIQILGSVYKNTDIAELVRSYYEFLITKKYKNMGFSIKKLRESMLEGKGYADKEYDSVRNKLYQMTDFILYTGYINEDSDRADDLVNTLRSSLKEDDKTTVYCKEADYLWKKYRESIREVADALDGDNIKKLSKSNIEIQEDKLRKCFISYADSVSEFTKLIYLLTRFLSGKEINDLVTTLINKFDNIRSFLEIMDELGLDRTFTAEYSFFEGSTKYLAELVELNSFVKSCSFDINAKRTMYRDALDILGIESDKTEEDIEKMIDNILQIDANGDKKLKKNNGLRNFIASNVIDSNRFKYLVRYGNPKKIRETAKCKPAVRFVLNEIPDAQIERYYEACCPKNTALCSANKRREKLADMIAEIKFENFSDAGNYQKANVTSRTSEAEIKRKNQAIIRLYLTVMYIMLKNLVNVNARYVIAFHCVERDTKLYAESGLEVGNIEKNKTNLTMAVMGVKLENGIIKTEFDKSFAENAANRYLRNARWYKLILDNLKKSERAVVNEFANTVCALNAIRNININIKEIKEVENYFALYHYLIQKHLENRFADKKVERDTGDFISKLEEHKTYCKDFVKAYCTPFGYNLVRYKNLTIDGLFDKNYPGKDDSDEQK
Assay: crRNA (strand 1, pre-loaded); Mg2+; 40 mM Tris-HCl pH 7.5, 150 mM NaCl, 6 mM MgCl2, 1 mM DTT, 0.1% Tween-20, 0.2 mg/ml BSA; 25 C; 10 min per concentration, then washed
Settings: tags: His6-TwinStrep-SUMO cleaved; N-terminal SNAP kept (SNAP-Surface 488); label: 3' end held by stalled T7 RNA polymerase
attributeMeasured: Kd (nM)

>>> reported("target 1 insA 3' of 7,insA 3' of 6 (mixed) RNA 1: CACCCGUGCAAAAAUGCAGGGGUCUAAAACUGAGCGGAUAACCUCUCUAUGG RNA 2: GGGAAUGGAUCCACAUCUACGAAUUCGUACCAUAGAGAGGUUAUCACAGCUCACCGAGAUCGGAAGAGCACACGU")
7.46
>>> reported("target 1 MT 5'PFS AAA 3'PFS UCG (mixed) RNA 1: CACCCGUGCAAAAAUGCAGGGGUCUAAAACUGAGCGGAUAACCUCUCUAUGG RNA 2: GGGAAUGGAUCCACAUCUACGAAUUCAAACCAUAGAGAGGUUAUCCGCUCAUCGAGAUCGGAAGAGCACACGU")
15.2
>>> reported("target 1 C7U,U11G (mixed) RNA 1: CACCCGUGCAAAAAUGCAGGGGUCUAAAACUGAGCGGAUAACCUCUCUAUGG RNA 2: GGGAAUGGAUCCACAUCUACGAAUUCGUACCAUAGAGAGGGUAUUCGCUCACCGAGAUCGGAAGAGCACACGU")
9.7
